experiment: Cytotoxicity against human prostate cancer cells after 48 hrs by SRB assay; format: functional; conditions: Cancer cell lines
In this section, each of the compounds is paired with its reported log10 of LC50.
Scale: log10; quantity: LC50; unit before log: µM

According to the records, this compound COc1ccc(-c2cc(-c3ccc(Cl)cc3)n(C3C(=O)Nc4ccc(Br)cc43)n2)cc1 (centres undefined) displays log10 of LC50 of 1.79

According to the records, this compound CN(C)c1ccc(C2CC(c3ccccc3)=NN2C2=NC(=O)/C(=C3\C(=O)Nc4ccc(Cl)cc43)S2)cc1 (centres undefined) displays log10 of LC50 of 1.11

According to the records, this compound CN(C)c1ccc(C2CC(c3ccccc3)=NN2C2=NC(=O)/C(=C3\C(=O)Nc4ccccc43)S2)cc1 (centres undefined) displays log10 of LC50 of 1.62

According to the records, this compound COc1ccc(C2=NN(C3=NC(=O)/C(=C4\C(=O)Nc5ccc(Cl)cc54)S3)C(c3ccc(Cl)cc3)C2)cc1 (centres undefined) displays log10 of LC50 of 1.88

According to the records, this compound COc1ccc(C2CC(c3ccc4ccccc4c3)=NN2C2=NC(=O)/C(=C3\C(=O)Nc4ccc(Br)cc43)S2)cc1 (centres undefined) displays log10 of LC50 of 1.14

According to the records, this compound Cc1ccc2c(c1)/C(=C1\SC(N3N=C(c4ccccc4)CC3c3ccc(Cl)cc3)=NC1=O)C(=O)N2 (centres undefined) displays log10 of LC50 of 2.00

According to the records, this compound COc1ccc(C2=NN(C3=NC(=O)/C(=C4\C(=O)Nc5ccccc54)S3)C(c3ccc(Cl)cc3)C2)cc1 (centres undefined) displays log10 of LC50 of 2.00

According to the records, this compound COc1ccc(C2CC(c3ccccc3)=NN2C2=NC(=O)/C(=C3\C(=O)Nc4ccccc43)S2)cc1 (centres undefined) displays log10 of LC50 of 0.87

According to the records, this compound O=C1Nc2ccc(Br)cc2C1n1nc(-c2ccc3ccccc3c2)cc1-c1ccc(Cl)cc1 (centres undefined) displays log10 of LC50 of 1.54
